Protocol Notes: Cell Viability - Hek293 (AID 427);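 also: potency is read from the fitted curve at half-maximal effect; cells exposed to compound for 40 hours at 37 °C before reading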
Test Conditions: qHTS
Records with an inconclusive call do not appear. Activity calls are given as the source filed them.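 The calls were made as follows: active = compounds whose dose-response curve shows a full or clear partial loss of cell viability, called from curve shape rather than a numeric limit; inconclusive = weak partial curves or an effect only at the top dose; inactive = no dose-dependent loss of viability.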
Recorded Endpoint: Potency

Sample answers from the record:
Compound	Recorded Endpoint	Result
CCCCCCCC(=O)OCC(COC(=O)CCCCCCC)OC(=O)CCCCCCC	Potency	> 92 µM (inactive)
CCCCOC(=O)c1ccc(N)cc1	Potency	> 92 µM (inactive)

input: Need Potency, item Nc1ccc(S(=O)(=O)c2ccc(N)cc2)cc1
output: > 92 µM (inactive)

input: Could you share which Potency value was measured for CC1CC(OC(=O)c2ccccc2O)CC(C)(C)C1 (centres undefined) ?
output: > 92 µM (inactive)
